Measured pKd values are reported for all entries that follow.
- assay target: Type-1 angiotensin II receptor (Bos taurus) (UniProt P25104)
- Sequence (P25104 whole entry, looked up): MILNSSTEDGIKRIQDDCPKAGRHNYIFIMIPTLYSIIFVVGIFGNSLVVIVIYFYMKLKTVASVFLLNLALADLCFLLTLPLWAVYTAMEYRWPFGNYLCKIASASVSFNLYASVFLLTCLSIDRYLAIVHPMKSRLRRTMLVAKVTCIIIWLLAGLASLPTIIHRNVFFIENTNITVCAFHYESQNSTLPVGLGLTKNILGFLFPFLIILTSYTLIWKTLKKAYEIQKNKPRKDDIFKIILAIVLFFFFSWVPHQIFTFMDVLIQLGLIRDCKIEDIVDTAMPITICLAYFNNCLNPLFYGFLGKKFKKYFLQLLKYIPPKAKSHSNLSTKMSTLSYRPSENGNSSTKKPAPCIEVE
- assay procedure: Binding affinity was determined against Angiotensin II receptor, type 1
Bear in mind: pKd is minus log10 of a mol/L concentration; give just that figure.

>>> test_result("CNCC(=O)N[C@@H](CCCNC(=N)N)C(=O)N[C@H](C(=O)N[C@@H](Cc1ccc(O)cc1)C(=O)N[C@H]1CCSS[C@@H]2C[C@@H](C(=O)N[C@@H](Cc3ccccc3)C(=O)O)N(C2)C(=O)[C@H](Cc2cnc[nH]2)NC1=O)C(C)C")
6.12

Proceeding to the next compound to report its pKd.
Query: Can you share its pKd? I mean this compound: `CNCC(=O)N[C@@H](CCCNC(=N)N)C(=O)N[C@H](C(=O)N[C@@H](Cc1ccc(O)cc1)C(=O)N[C@@H]1CSS[C@@H]2C[C@H](C(=O)N[C@@H](Cc3ccccc3)C(=O)O)N(C2)C(=O)[C@@H](Cc2cnc[nH]2)NC1=O)C(C)C`
Reply: 5.64
